B1: Twister Ribozyme (parent)
chain: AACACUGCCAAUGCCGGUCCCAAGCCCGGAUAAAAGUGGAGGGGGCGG

variants of: B1; test: self-cleavage, relative activity (ratio to wild type); higher = more cleavage; co-transcriptional
Criterion: self-cleavage meeting or surpassing 0.6. Met: met. Not met: not met.

Past entries and their recorded results:
C14A A22U	met
C14A A33U	met
C14U C27G	not met
C9U G36U	not met
C21A G44A	not met
C9A A33G	not met
C27U A40U	not met
A23U G39U	not met
G17C G29U	not met
A1C G36C	not met

Answer whether self-cleavage of A1U A23C is greater than or equal to 0.6.
not met

Answer whether self-cleavage of A35C G48C is greater than or equal to 0.6.
met

Answer whether self-cleavage of U6C G17C is greater than or equal to 0.6.
not met

Answer whether self-cleavage of G7C G48C is greater than or equal to 0.6.
not met

Answer whether self-cleavage of C8G C14G is greater than or equal to 0.6.
not met

Answer whether self-cleavage of U12G A30G is greater than or equal to 0.6.
met

Answer whether self-cleavage of A4C A22G is greater than or equal to 0.6.
not met

Answer whether self-cleavage of A33U A40U is greater than or equal to 0.6.
not met

Answer whether self-cleavage of A10C A32G is greater than or equal to 0.6.
met

Answer whether self-cleavage of C26G G29A is greater than or equal to 0.6.
not met
